Assay: Protein binding in rat blood at 0.0002 to 1000 mg/ml after 4 hrs by LC/MS/MS based rapid equilibrium dialysis method
Format: ADME, tissue-based
Details: read-out: PPB (converted)
OBSERVATION_TYPE: fraction unbound at 4 h
I'd appreciate a reply containing only the number, no unit.

Query: Data request, read-out fraction unbound at 4 h, for "Cc1nn(CC(F)(F)F)cc1Nc1ncc(Br)c(NCc2ccc(S(N)(=O)=O)cc2)n1"
Reply: 0.004

###

Assay: Protein binding in human blood at 0.0002 to 1000 mg/ml after 4 hrs by LC/MS/MS based rapid equilibrium dialysis method
Assay type: ADME, tissue-based
Details: read-out: PPB (converted)
OBSERVATION_TYPE: fraction unbound at 4 h
I'd appreciate a reply containing only the number, no unit.

Query: Data request, read-out fraction unbound at 4 h, for "Cc1nn(CC(F)(F)F)cc1Nc1ncc(Br)c(NCc2ccc(S(N)(=O)=O)cc2)n1"
Reply: 0.007
